tested on: antennae of mated female C. nigricana; assay: GC-EAD electro-antennography, antennal response to synthetic pea volatiles; parameters: species or system Cydia nigricana; conditions: GC-EAD dose response over four doses (FIG. 1)
increase of antennal response with dose, ANOVA P for assorted compounds
experimental_readout: increase of antennal response with dose, ANOVA P

compound: CCC/C=C/CO [(E)-2-hexen-1-ol]
result_modifier: =
numeric_readout: 0.0049
--
compound: CCCCCCO [1-hexanol]
result_modifier: =
numeric_readout: 0.0003
--
compound: CC/C=C\CCO [(Z)-3-hexenol]
result_modifier: =
numeric_readout: 0.6578
--
compound: CCC/C=C/C=O [2-(E)-hexenal]
result_modifier: =
numeric_readout: 0.0139
--
compound: CC/C=C\CCOC(C)=O [(Z)-3-hexenyl acetate]
result_modifier: =
numeric_readout: 0.0091
--
compound: C=C/C(C)=C\CC=C(C)C [(Z)-β-ocimene]
result_modifier: =
numeric_readout: 0.0252
--
compound: CCCCCCCC=O [octanal]
result_modifier: <
numeric_readout: 0.0001
--
compound: CCCCCCCCC=O [nonanal]
result_modifier: =
numeric_readout: 0.0067
--
compound: C=C/C(C)=C/CC=C(C)C [(E)-β-ocimene]
result_modifier: =
numeric_readout: 0.0051

Origin of values: patent US20160302411A1
